This collection of values is drawn from patent US20040072240A1.

target.or.test.system: HLA A2.1 molecule (human)
assay.comment: T2 cells, flow cytometry; P1Y variant against its natural peptide
measurement.label: RA WT/RA Y1
// response body must contain only the number

YLTVILGVL (modifications not checked) [P1Y variant of Mart-1 32]	16.2

Q: Read off the recorded RA WT/RA Y1 for YMAGVGSPYV (modifications not checked) [P1Y variant of HER-2/neu 773]
Ans: 2
